Tested on: CCRIS mutagenicity, Ames/micronucleus/aberration tests
Experiment: CCRIS mutagenicity studies
Conditions: Test System: AMES SALMONELLA TYPHIMURIUM; Strain/Indicator: TA1538; Metabolic Activation: RAT, LIVER, S-9, AROCLOR 1254; Method: STANDARD PLATE
Active and inactive are the calls of the source. The rule behind the calls is not given here.
Respond with a class label; see active, inactive

[
  {
    "COMPOUND": "C=CC(=O)OCCOC(=O)C=C",
    "ASSIGNED CLASS": "inactive"
  },
  {
    "COMPOUND": "CCOc1cc(N=Nc2ccc(N(CC)CC)cc2)ccc1N=Nc1c(S(=O)(=O)O)cc2ccc(N)cc2c1O",
    "ASSIGNED CLASS": "active"
  },
  {
    "COMPOUND": "Nc1nc(-c2cccnc2)cs1",
    "ASSIGNED CLASS": "inactive"
  },
  {
    "COMPOUND": "CCCCC(CC)COC(=O)c1ccc(N(C)N=O)cc1 (stereo not drawn)",
    "ASSIGNED CLASS": "inactive"
  },
  {
    "COMPOUND": "C=CC(=O)OCC(C)(C)C",
    "ASSIGNED CLASS": "inactive"
  }
]

Turning to the following compound.
Fill in: this test's call for COC(=O)c1ccc(C(=O)OC)cc1 is ___ inactive

====

Test system: CCRIS mutagenicity, Ames/micronucleus/aberration tests
Assay: CCRIS mutagenicity studies
Conditions: Test System: AMES SALMONELLA TYPHIMURIUM; Strain/Indicator: TA98; Metabolic Activation: NONE; Method: PREINCUBATION
Active and inactive are the calls of the source. The rule behind the calls is not given here.
ENDPOINT: mutagenic call

Solved entries:
[
  {
    "COMPOUND": "O=C(O)C(F)(F)C(F)(Cl)C(F)(F)C(F)(Cl)C(F)(F)C(F)(Cl)C(F)(F)Cl (stereo unspecified)",
    "ENDPOINT": "mutagenic call",
    "VALUE MEASURED": "inactive; negative"
  },
  {
    "COMPOUND": "Cc1ccsc1",
    "ENDPOINT": "mutagenic call",
    "VALUE MEASURED": "inactive; negative"
  },
  {
    "COMPOUND": "O=C1c2ccccc2C(=O)c2c(O)cccc21",
    "ENDPOINT": "mutagenic call",
    "VALUE MEASURED": "inactive; negative"
  },
  {
    "COMPOUND": "CCCCCCCC/C=C/CCCCCCCC(=O)OCCOCC(OCCO)C1OCC(OCCO)C1OCCO (stereo unspecified)",
    "ENDPOINT": "mutagenic call",
    "VALUE MEASURED": "inactive; negative"
  },
  {
    "COMPOUND": "O=C=Nc1ccc(Cc2ccc(N=C=O)cc2)cc1",
    "ENDPOINT": "mutagenic call",
    "VALUE MEASURED": "inactive; negative"
  }
]

API: the following record is the query input.
Form: compound = C=C1C[C@@]23CC[C@H]4[C@@](C)(CCC[C@@]4(C)C(=O)O)[C@@H]2CC[C@]1(O)C3 ; mutagenic call = inactive; negative

====

Tested on: CCRIS mutagenicity, Ames/micronucleus/aberration tests
Experiment: CCRIS mutagenicity studies
Details: Test System: AMES SALMONELLA TYPHIMURIUM; Strain/Indicator: TM677; Metabolic Activation: RAT, LIVER, S-9, AROCLOR 1254; Method: PREINCUBATION
Text: The CCRIS database contains chemical records with carcinogenicity, mutagenicity, tumor promotion, and tumor inhibition test results. It was developed by the National Cancer Institute (NCI). Data are derived from studies cited in primary journals, current awareness tools, NCI reports, and other sources. Test results have been reviewed by experts in carcinogenesis and mutagenesis. CCRIS provides historical information from the years 1985 - 2011. It is no longer updated. […]
The source made the active and inactive calls. The rule behind the calls is not given here.
Respond with a class label; see Yes for active, No for inactive

A selection of reference data follows.
[
  {
    "COMPOUND": "[NH-]CCC(=O)[N-][C@@H](Cc1cnc[nH]1)C(=O)[O-].[Zn+2]",
    "SUBJECT OF TEST": "CCRIS mutagenicity, Ames/micronucleus/aberration tests",
    "ASSIGNED CLASS": "No"
  },
  {
    "COMPOUND": "C=C1C[C@@]23CC[C@H]4[C@@](C)(CCC[C@@]4(C)C(=O)O)[C@@H]2CC[C@]1(O[C@@H]1O[C@H](CO)[C@@H](O)[C@H](O[C@@H]2O[C@H](CO)[C@@H](O)[C@H](O)[C@H]2O)[C@H]1O[C@@H]1O[C@H](CO)[C@@H](O)[C@H](O)[C@H]1O)C3",
    "SUBJECT OF TEST": "CCRIS mutagenicity, Ames/micronucleus/aberration tests",
    "ASSIGNED CLASS": "No"
  },
  {
    "COMPOUND": "C=C1C[C@@]23CC[C@H]4[C@@](C)(CCC[C@@]4(C)C(=O)O)[C@@H]2CC[C@]1(O)C3",
    "SUBJECT OF TEST": "CCRIS mutagenicity, Ames/micronucleus/aberration tests",
    "ASSIGNED CLASS": "Yes"
  }
]

Fill in: this test's call for C[C@H]1C[C@@]23CCC4C[C@](C)(C(=O)O)CC[C@@]4(C)[C@@H]2CC[C@]1(O)C3 (some centres undefined) is ___ No

====

Test system: CCRIS mutagenicity, Ames/micronucleus/aberration tests
Test: CCRIS mutagenicity studies
Details: Test System: AMES SALMONELLA TYPHIMURIUM; Strain/Indicator: TA100; Metabolic Activation: NONE; Method: PREINCUBATION
Excerpt: The CCRIS database contains chemical records with carcinogenicity, mutagenicity, tumor promotion, and tumor inhibition test results. It was developed by the National Cancer Institute (NCI). Data are derived from studies cited in primary journals, current awareness tools, NCI reports, and other sources. Test results have been reviewed by experts in carcinogenesis and mutagenesis. CCRIS provides historical information from the years 1985 - 2011. It is no longer updated. […]
Active and inactive are the calls of the source. How the calls were made is not given here.
ENDPOINT: mutagenic call

[
  {
    "COMPOUND": "Nc1ccc2ccccc2c1",
    "VALUE MEASURED": "inactive; negative"
  },
  {
    "COMPOUND": "c1ccc2c(c1)cc1c3c2ccc2cccc(c23)C2NC12 (configuration not stated)",
    "VALUE MEASURED": "active; positive"
  },
  {
    "COMPOUND": "CCCSC(=O)Cl",
    "VALUE MEASURED": "inactive; negative"
  },
  {
    "COMPOUND": "C=C(C)C(=O)O",
    "VALUE MEASURED": "inactive; negative"
  },
  {
    "COMPOUND": "Cc1c2ccccc2cc2c3c(ccc12)C(=O)C(=O)C=C3",
    "VALUE MEASURED": "inactive; negative"
  },
  {
    "COMPOUND": "N#CC(O)c1ccccc1 (configuration not stated)",
    "VALUE MEASURED": "inactive; negative"
  },
  {
    "COMPOUND": "Clc1ccc(Cl)c(Cl)c1",
    "VALUE MEASURED": "inactive; negative"
  },
  {
    "COMPOUND": "COc1cc(NCCCCCNC(C)C)c2ncccc2c1",
    "VALUE MEASURED": "inactive; negative"
  }
]

Form: compound = [O-][Cl+3]([O-])([O-])O ; mutagenic call = inactive; negative

Form: compound = Cc1ccsc1 ; mutagenic call = inactive; negative

Form: compound = C#C[C@]1(OC(=O)CCCCCC)CC[C@H]2[C@@H]3CCC4=CC(=O)CC[C@@H]4[C@H]3CC[C@@]21C ; mutagenic call = inactive; negative

Form: compound = C(=C\c1ccccc1)/c1ccccc1 ; mutagenic call = inactive; negative

Form: compound = c1ccc2c(c1)Oc1ccccc1S2 ; mutagenic call = inactive; negative

Form: compound = Nc1cc2nc3ccccc3nc2cc1O ; mutagenic call = inactive; negative

Form: compound = O=C(Cl)c1ccc(Cl)cc1Cl ; mutagenic call = inactive; negative

Form: compound = CN(C)c1ccc(N)cc1 ; mutagenic call = inactive; negative

Form: compound = OCC(O)CCl (configuration not stated) ; mutagenic call = active; positive

====

Test system: CCRIS mutagenicity, Ames/micronucleus/aberration tests
Assay: CCRIS mutagenicity studies
Conditions: Test System: E. COLI; Strain/Indicator: WP2 UVRA; Metabolic Activation: NONE; Method: FLUCTUATION TEST
The source made the active and inactive calls. The rule behind the calls is not given here.
ENDPOINT: mutagenic call

Solved entries:
[
  {
    "SUBSTANCE SMILES": "Nc1ccc(Cl)cc1",
    "SUBJECT OF TEST": "CCRIS mutagenicity, Ames/micronucleus/aberration tests",
    "VALUE MEASURED": "inactive; negative"
  },
  {
    "SUBSTANCE SMILES": "CC(=O)c1ccc(N)cc1",
    "SUBJECT OF TEST": "CCRIS mutagenicity, Ames/micronucleus/aberration tests",
    "VALUE MEASURED": "inactive; negative"
  },
  {
    "SUBSTANCE SMILES": "ONc1ccc(I)cc1",
    "SUBJECT OF TEST": "CCRIS mutagenicity, Ames/micronucleus/aberration tests",
    "VALUE MEASURED": "inactive; negative"
  },
  {
    "SUBSTANCE SMILES": "Cc1ccc(NO)cc1",
    "SUBJECT OF TEST": "CCRIS mutagenicity, Ames/micronucleus/aberration tests",
    "VALUE MEASURED": "active; positive"
  }
]

Form: compound = CCOC(=O)NO ; mutagenic call = active; positive
